Below is a list of entries, each paired with its recorded PBM binding z-score value.
system: RARa:RXR (NR concentration 270 nM, RXRa partner concentration 90 nM); assay: PBM binding z-score (relative to random genomic background probes); higher = stronger binding; sequences stand for … in GC…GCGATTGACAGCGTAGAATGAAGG
Could you respond with only the numeric value?

Please tell me: PBM binding z-score of ATATGTAGGTTAACGGGTCATTCAGTTTGCGCAT , system RARa:RXR (NR concentration 270 nM, RXRa partner concentration 90 nM)?
3.42

Please tell me: PBM binding z-score of CGTCCAAGGTCAGAGAGGTCGGTGAATGCCGAGT , system RARa:RXR (NR concentration 270 nM, RXRa partner concentration 90 nM)?
2.96

Please tell me: PBM binding z-score of TAGAGTAGGTTACCAATGGGGCATTCAGCTTTCT , system RARa:RXR (NR concentration 270 nM, RXRa partner concentration 90 nM)?
0.669

Please tell me: PBM binding z-score of CGTCCCAGGTCAAAGGTCAGTGAAGAGATGACGG , system RARa:RXR (NR concentration 270 nM, RXRa partner concentration 90 nM)?
8.49

Please tell me: PBM binding z-score of CCTATTAATTGACCATAAGGGCAACCGAAGCTCG , system RARa:RXR (NR concentration 270 nM, RXRa partner concentration 90 nM)?
1.11

Please tell me: PBM binding z-score of TGAATGAGGTTATAACATCAGGGAACGTTGCAAA , system RARa:RXR (NR concentration 270 nM, RXRa partner concentration 90 nM)?
1.4

* * *

test system: RXRa DBDmut IVT, anti-RXR (DBD mutation: RXRa K156A/R161A, NR concentration 90 nM); experiment: PBM binding z-score (relative to random genomic background probes); higher = stronger binding; sequences stand for … in GC…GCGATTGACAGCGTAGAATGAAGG
# PBM binding z-score >= 0.3 gives true, anything below gives false

>>> df
                        sequence_data                                    system   cat
0  CTCGAAAGGTCGTGCGCAGGTGAGTATACCAAAC  RXRa DBDmut IVT, anti-RXR (DBD mutation: RXRa K156A/R161A, NR concentration 90 nM)  true
1  TCAAATAGGTAAACAGGTGAAAGTCCGTAAGTTA  RXRa DBDmut IVT, anti-RXR (DBD mutation: RXRa K156A/R161A, NR concentration 90 nM)  true
2  CCGATTAGTTGACCATAAGGGCAACCGAAGCTCG  RXRa DBDmut IVT, anti-RXR (DBD mutation: RXRa K156A/R161A, NR concentration 90 nM)  true
3  TCGAGTAGGTTAGGTGCATTCAGAATGGCGTCGA  RXRa DBDmut IVT, anti-RXR (DBD mutation: RXRa K156A/R161A, NR concentration 90 nM)  true
4  TCGAGTAGGTTACCAATGGGACATTCAGCTTTCT  RXRa DBDmut IVT, anti-RXR (DBD mutation: RXRa K156A/R161A, NR concentration 90 nM)  true

Turning to the following sequence.
Is it the case that AATCGGAGGACAAAGGTCAGAGCTACGCCAGTGA has PBM binding z-score reaching or exceeding 0.3?
true

* * *

Below is a list of entries, each paired with its recorded PBM binding z-score value.
system: VDR homodimer (NR concentration 270 nM); assay: PBM binding z-score (relative to random genomic background probes); higher = stronger binding; sequences stand for … in GC…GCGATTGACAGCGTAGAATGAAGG
Could you respond with only the numeric value?

Below, 5 sequences whose answers are already recorded.
>>> df
                        sequence_data  result
0  AGAATGAGGTTACCAAAGATCAGGCAAACGCTTG  -0.192
1  GCGACTTGGGCAAAGCAGGTTACCATAAGGTTGG  -0.774
2  AGAATGAGGTTACCGAAGATCAGGGAAACGCTTG   0.193
3  AGTCAAAATTCAGGACGAGGTAACGTAAAGCACG  0.0292
4  CCTCGGAGGACAACAGGAGGTCAGAGGTGCCAGA    1.13

Fill blank: measured PBM binding z-score of the sequence TCTAGCCGGCCAGAGGGTCACTCAAGAGGTACGG is ____.
-0.169

* * *

test system: RXRa homodimer (NR concentration 180 nM); assay: PBM binding z-score (relative to random genomic background probes); higher = stronger binding; sequences stand for … in GC…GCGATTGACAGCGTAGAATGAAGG
property.name: PBM binding z-score
Could you respond with only the numeric value?

Below, 8 sequences whose answers are already recorded.
>>> print(df.to_string())
                        sequence_data  result
0  ACTAGCAGGCCAAGGGTAACTCAAGATTAGTCCG    0.59
1  ATCTCTAGGAAACCAAGTTCAGTGAATGCCGAAC   0.323
2  ACTAGCAGGCCAACGGTCACTCAAGATTAGTCCG   0.345
3  AGTCAAAGTGCAGGACGAGGTAACGTAAAGCACG    0.45
4  AGTCAAAGTACACTAGGTAACGTAAGATTCAGCT   0.318
5  ATCGAAAGGTCGTGAGGTGAGTATCCAGAAAGGC    5.24
6  TTACCAAGGTGGAAGGTCGTTGATGCACGCCTTG    1.43
7  GCTAGCAGGCCATTCGGGTCACTCAATGACGGGC    1.81

Fill blank: measured PBM binding z-score of the sequence ACAGACAGGTGATGAAGATAACTCAGGCTATCAT is ____.
0.164

Fill blank: measured PBM binding z-score of the sequence GCTGCTATGTCAACTGATGGTCAGCTAAAGCTCG is ____.
-0.00112

Fill blank: measured PBM binding z-score of the sequence CGAACTAGGCCAAGGACAGTGAATCTCCGCACGC is ____.
-0.0922

Fill blank: measured PBM binding z-score of the sequence TCTTGTAGATCACCAGGAGGTTAAGAAAGATCGA is ____.
1.14

* * *

system: PPARg:RXRa (NR concentration 180 nM, RXRa partner concentration 90 nM); test: PBM binding z-score (relative to random genomic background probes); higher = stronger binding; sequences stand for … in GC…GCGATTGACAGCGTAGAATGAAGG
# PBM binding z-score >= 4 gives Criterion met, anything below gives Criterion not met

Is it the case that GCTTACTGGTCAAAGGTTATAGCATGAATAGAAT has PBM binding z-score reaching or exceeding 4?
Criterion met

Is it the case that CGAACTAGGACAGAACAGGACAGTGAAGGATGAT has PBM binding z-score reaching or exceeding 4?
Criterion not met

Is it the case that GCTAGCAGGCCATTTGGGTCACTTAATGACGGGC has PBM binding z-score reaching or exceeding 4?
Criterion not met

Is it the case that CGTACAAGGTCAGCAGGTCAGTGAAAGCGACGTG has PBM binding z-score reaching or exceeding 4?
Criterion met

Is it the case that CGGAGTAGGTTATGGGGCATTCAGGCAACGGTGA has PBM binding z-score reaching or exceeding 4?
Criterion met

Is it the case that TTTTGTAGATCAAAGGTTAAGAAAGCCGAAGCCT has PBM binding z-score reaching or exceeding 4?
Criterion met

Is it the case that AGAACCAGGGCAATGAGTTGATAGCACGGGTGGC has PBM binding z-score reaching or exceeding 4?
Criterion not met

Is it the case that CCGACTGGGGCAAGGTTACCAGAACGCACAGCCA has PBM binding z-score reaching or exceeding 4?
Criterion not met

* * *

test system: RARg:RXRa (NR concentration 270 nM, RXRa partner concentration 90 nM); assay: PBM binding z-score (relative to random genomic background probes); higher = stronger binding; sequences stand for … in GC…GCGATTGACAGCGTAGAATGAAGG
# PBM binding z-score >= 2 gives label 1, anything below gives label 0

Solved entries (count: 8):
In [3]: df
Out[3]:
                        sequence_data                                    system      cat
0  TCTAGTTGGTCAAAGGTCACCCACTCGAAATGCG  RARg:RXRa (NR concentration 270 nM, RXRa partner concentration 90 nM)  label 1
1  ACAGACTGGTGAGTGAAGGTAACTCAGCTGGACG  RARg:RXRa (NR concentration 270 nM, RXRa partner concentration 90 nM)  label 0
2  CCGACTGGGGCAAGGGTTACCATACTCAGTACGA  RARg:RXRa (NR concentration 270 nM, RXRa partner concentration 90 nM)  label 0
3  ATACCAAGGTGATCGTGAGGTCGTTGACACTAAC  RARg:RXRa (NR concentration 270 nM, RXRa partner concentration 90 nM)  label 1
4  ACTAGCAGGCCAAGTTTGGGTCACTCGAACAAAG  RARg:RXRa (NR concentration 270 nM, RXRa partner concentration 90 nM)  label 1
5  TCTTGTAGATCACAGGTTAAGAAAGCCGAAGCCT  RARg:RXRa (NR concentration 270 nM, RXRa partner concentration 90 nM)  label 0
6  TCTAGCAGGCCAGAGGGTCTCTCAAGAGGTACGG  RARg:RXRa (NR concentration 270 nM, RXRa partner concentration 90 nM)  label 0
7  AGAATGAGGTTATTAAGATCAGGGAGTTGCGGTC  RARg:RXRa (NR concentration 270 nM, RXRa partner concentration 90 nM)  label 0

Is it the case that AGTCCAAGTTCAGGACGAGGTAACGTAAAGCACG has PBM binding z-score reaching or exceeding 2?
label 1

Is it the case that CTACCAAGGTGAACAGGGTCGTTGATTACTATTC has PBM binding z-score reaching or exceeding 2?
label 0

Is it the case that TATACAGGGTTAAAGGCCAGAGTACGAATGTCGA has PBM binding z-score reaching or exceeding 2?
label 1

Is it the case that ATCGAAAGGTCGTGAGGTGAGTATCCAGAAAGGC has PBM binding z-score reaching or exceeding 2?
label 1

Is it the case that GCATATAGGTAATACCAGGTGAAAGTCCGATTGT has PBM binding z-score reaching or exceeding 2?
label 0

Is it the case that ATCGAAAGGTCGAGGTGAGTAAAGAGAAAGGGAA has PBM binding z-score reaching or exceeding 2?
label 1

Is it the case that AGAATGAGGTTAACATCAGGGAAACAGAATACAT has PBM binding z-score reaching or exceeding 2?
label 1

Is it the case that CGTCAAAGTTCAAGGTAACTTAACAGAAAGCAGC has PBM binding z-score reaching or exceeding 2?
label 1

Is it the case that TGTCAAAGTTCAATGGTAACGTAAGTATCCACAC has PBM binding z-score reaching or exceeding 2?
label 1

Is it the case that ACTCTTAGTTGACTTAGGGCAACCGATACGACGC has PBM binding z-score reaching or exceeding 2?
label 0
